target: pro-protein convertase of the subtype nine binding to recombinant LDLR-AB domain (Homo sapiens); assay: in vitro quantitative solid phase binding assay (ELISA) of the subtype nine pro-protein convertase to immobilized LDLR; details: Concentration 100 μM
Sequence (Q8NBP7 153-692): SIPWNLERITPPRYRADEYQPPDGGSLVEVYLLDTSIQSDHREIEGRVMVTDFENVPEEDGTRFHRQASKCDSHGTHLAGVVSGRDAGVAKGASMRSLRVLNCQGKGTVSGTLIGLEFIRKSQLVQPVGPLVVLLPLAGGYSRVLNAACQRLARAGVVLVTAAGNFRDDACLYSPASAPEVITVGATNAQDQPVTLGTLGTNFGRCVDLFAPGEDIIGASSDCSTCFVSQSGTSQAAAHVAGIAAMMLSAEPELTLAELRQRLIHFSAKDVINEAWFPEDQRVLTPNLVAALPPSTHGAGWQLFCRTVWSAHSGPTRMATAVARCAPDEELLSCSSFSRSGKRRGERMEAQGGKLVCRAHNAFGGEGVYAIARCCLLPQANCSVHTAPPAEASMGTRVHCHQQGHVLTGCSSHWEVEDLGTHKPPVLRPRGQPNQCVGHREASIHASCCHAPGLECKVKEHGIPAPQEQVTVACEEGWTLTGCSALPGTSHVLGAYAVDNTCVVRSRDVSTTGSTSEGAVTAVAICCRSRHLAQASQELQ
Sequence (Q8NBP7 31-152 partner limits assumed): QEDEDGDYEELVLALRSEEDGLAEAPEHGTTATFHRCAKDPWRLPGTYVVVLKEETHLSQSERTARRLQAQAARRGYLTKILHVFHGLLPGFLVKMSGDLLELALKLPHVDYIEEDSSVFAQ
measured.metric: inhibition at 100 µM (%)

# input.smiles, unit.of.measurement, inhibition at 100 µM
records = [
    ("COCC(=NOCc1ccc(C(F)(F)F)cc1)c1ccc(OCC(=O)NCC2CCOCC2)cc1", "%", 36),
    ("CCC(=NOCc1ccc(C(F)(F)F)cc1)c1ccc(NCC(=O)NCC2CCOCC2)nc1", "%", 47),
    ("O=C(COc1ccc(C(Cc2ccccc2)=NOCc2ccccn2)cc1)NCC1CCOCC1", "%", 27),
]

(P) Cc1ccc(CON=C(Cc2ccccc2)c2ccc(OCC(=O)NCC3CCOCC3)cc2)cc1
(Q) CCC(=NOCc1ccc(S(C)(=O)=O)cc1)c1ccc(OCC(=O)NCC2CCOCC2)cc1
Please tell me which of the two, P or Q , has the higher reported inhibition at 100 µM value. Label of pick, please.
Q

(A) O=C(COc1ccc(C=NOCc2ccc(C(F)(F)F)cc2)cn1)NCC1CCOCC1
(B) O=C(COc1ccc(C(Cc2ccccc2)=NOCc2ccc(Cl)cc2)cc1)NCC1CCOCC1
(C) COc1ccc(CON=C(Cc2ccccc2)c2ccc(OCC(=O)NCC3CCOCC3)cc2)cc1
(D) O=C(COc1ccc2c(c1)CCCC2=NOCc1ccc(Cl)cc1)NCC1CCOCC1
Endpoint returns the given molecules ordered by ascending inhibition at 100 µM. Order the labels as requested and give them as your answer.
D, C, B, A
(D: 11%, C: 19%, B: 28%, A: 46%)

(I) Cc1cc(C(Cc2ccccc2)=NOCc2ccc(F)cc2)ccc1OCC(=O)NCC1CCOCC1
(II) O=C(COc1ccc(C(Cc2ccncc2)=NOCc2ccc(C(F)(F)F)cc2)cc1)NCC1CCOCC1
Lab log: flag the item ( I or II ) with the smaller inhibition at 100 µM figure. Label of pick, please.
I
